ASSAYED_TARGET: UniProtKB O14965
Sequence (O14965 whole entry): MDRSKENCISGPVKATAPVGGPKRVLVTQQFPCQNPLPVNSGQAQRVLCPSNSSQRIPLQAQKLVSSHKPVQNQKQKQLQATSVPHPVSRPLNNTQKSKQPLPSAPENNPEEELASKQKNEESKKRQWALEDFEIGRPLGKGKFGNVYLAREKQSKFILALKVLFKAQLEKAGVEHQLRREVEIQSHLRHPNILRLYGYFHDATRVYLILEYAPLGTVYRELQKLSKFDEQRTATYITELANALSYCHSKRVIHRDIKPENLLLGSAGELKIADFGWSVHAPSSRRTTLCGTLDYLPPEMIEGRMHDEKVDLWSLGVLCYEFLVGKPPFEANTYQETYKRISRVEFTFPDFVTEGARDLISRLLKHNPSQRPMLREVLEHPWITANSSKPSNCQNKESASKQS
pIC50: −log10 of the molar value.
Threshold check on pIC50: at or above 5 gives met, strictly below gives not met.

SMILES_REPR	CLASSIFICATION
COC(=O)c1cccc(NC(=O)c2cc(-n3cc(CNc4ncccn4)nn3)ccc2O)c1	not met
COC(=O)c1cccc(NC(=O)c2cc(-n3cc(-c4ccc5c(c4)OCO5)nn3)ccc2O)c1	met
COC(=O)c1cccc(NC(=O)c2cc(-n3cc(-c4cccc([N+](=O)[O-])c4)nn3)ccc2O)c1	met

* * *

Observed IC50, system Aurora kinase B (Homo sapiens, UniProt Q96GD4).
METRIC: IC50 (µM)

SMILES_REPR	OBSERVED
COC(=O)c1cccc(NC(=O)c2cc(-n3cc(CCNc4ncnc5ccsc45)nn3)ccc2O)c1	0.364
COC(=O)c1cccc(NC(=O)c2cc(-n3cc(CNc4ccccn4)nn3)ccc2O)c1	32.1
COC(=O)c1cccc(NC(=O)c2cc(-n3cc(CNc4nc5ccccc5o4)nn3)ccc2O)c1	10.2
COC(=O)c1cccc(NC(=O)c2cc(-n3cc(-c4cc(OC)cc(OC)c4)nn3)ccc2O)c1	5.94
COC(=O)c1cccc(NC(=O)c2cc(-n3cc(-c4cccc([N+](=O)[O-])c4)nn3)ccc2O)c1	1.33
COC(=O)c1cccc(NC(=O)c2cc(-n3cc(CNc4ccccc4)nn3)ccc2O)c1	36.5
COC(=O)c1cccc(NC(=O)c2cc(-n3cc(CNc4cc(C)[nH]n4)nn3)ccc2O)c1	49.5
COC(=O)c1cccc(NC(=O)c2cc(-n3cc(CNc4ncccn4)nn3)ccc2O)c1	40.7
